- Test system: M14
- experiment.notes: Antiproliferative activity against human M14 cells after 72 hrs by MTT assay
- Format: functional, cell-based
- particulars: M14, 72 h
value.kind: IC50

>  <structure.notation>
COc1cc(C(=O)c2c[nH]c(-c3c[nH]c4c(OCc5ccccc5)cccc34)n2)cc(OC)c1OC

>  <value.kind>
IC50

>  <value>
> 1000 nM

$$$$

[Q] Fill in IC50 for record COc1cc(C(=O)c2c[nH]c(-c3ccc4[nH]ccc4c3)n2)cc(OC)c1OC
[A] 18.5 nM

[Q] Please list IC50 recorded for the compound COc1cc(C(=O)c2c[nH]c(-c3c[nH]c4cc(O)ccc34)n2)cc(OC)c1OC
[A] > 1000 nM

* * *

The compounds listed here are annotated with their half-life.
- experiment.notes: Half-life in rat liver microsomes pre-incubated for 15 mins followed by addition of NADPH regenerating system by LC-MS analysis
- Type: ADME, Microsome

[Q] Name the recorded half-life of the item COc1cc(C(=O)c2c[nH]c(-c3ccc4cc[nH]c4c3)n2)cc(OC)c1OC in your answer.
[A] 15.2 h

[Q] Return value of half-life for input COc1cc(C(=O)c2c[nH]c(-c3cccc4[nH]ccc34)n2)cc(OC)c1OC , no commentary.
[A] 5.26 h

[Q] Supply half-life value. Item: COc1cc(C(=O)c2c[nH]c(-c3c[nH]c4cccc(C)c34)n2)cc(OC)c1OC
[A] 1.8 h

* * *

- experiment.notes: Half-life in human liver microsomes in presence of NADPH regenerating system
- Assay type: ADME, Microsome
value.kind: half-life (h)
Respond with the bare value in h.

Example results:
>  <structure.notation>
COc1cc(C(=O)c2c[nH]c(-c3ccc4cc[nH]c4c3)n2)cc(OC)c1OC

>  <value.units>
h

>  <value>
7.61

$$$$
>  <structure.notation>
COc1cc(C(=O)c2c[nH]c(-c3c[nH]c4cccc(C)c34)n2)cc(OC)c1OC

>  <value.units>
h

>  <value>
6.7

$$$$

[Q] Retrieve half-life measured for COc1cc(C(=O)c2c[nH]c(-c3cccc4[nH]ccc34)n2)cc(OC)c1OC and print it.
[A] 6.72

* * *

pIC50 reference
- Test system: WM164
- experiment.notes: Antiproliferative activity against human WM164 cells after 72 hrs by MTT assay
- Assay type: functional, cell-based
- particulars: WM164, 72 h
// returns pIC50 (minus log10 of molar concentration), number only

[Q] State its pIC50 for this compound: COc1cc(C(=O)c2c[nH]c(-c3c[nH]c4c(C)cccc34)n2)cc(OC)c1OC
[A] 7.21

[Q] Write down pIC50 measured for item COc1cc2c(c(OC)c1OC)-c1ccc(OC)c(=O)cc1[C@@H](NC(C)=O)CC2
[A] 7.97

[Q] // Input: COc1cc(C(=O)c2c[nH]c(-c3cccc4[nH]ccc34)n2)cc(OC)c1OC . Output its pIC50 only.
[A] 8.80

[Q] Look up and report measured pIC50 for this entry: COc1cc(C(=O)c2c[nH]c(-c3c[nH]c4ccc(Br)cc34)n2)cc(OC)c1OC
[A] 6.35

* * *

Ratio IC50 for assorted compounds
- experiment.notes: Resistance index, ratio of IC50 for human DU145-TxR cells to IC50 for human DU145 cells
- Type: functional
Please state the value as a number alone, without comment.

>  <structure.notation>
COc1cc(C(=O)c2c[nH]c(-c3cccc4[nH]ccc34)n2)cc(OC)c1OC

>  <Ratio IC50>
2.2

$$$$

Shift focus to the following entry.
[Q] Supply measured Ratio IC50 of COc1cc(C(=O)c2c[nH]c(-c3c[nH]c4cccc(C)c34)n2)cc(OC)c1OC in your reply.
[A] 1.8

Value source: ChEMBL document CHEMBL4364286
